Test system: PC-3
Assay: NCI-60 single dose screen, sulforhodamine B
Type: cell-based, human
Details: Prostate cancer PC-3; single dose 10^−5 M
Quantity Measured: GI% at 10^−5 M (%)

>>> print(df.to_string())
                                smiles_code  unit_symbol  obs_value
0  COc1ccc(N2CCN(CC(=O)Nn3c(COc4ccccc4)nc4ccccc4c3=O)CC2)cc1            %      14.02
1  O=c1c2ccccc2nc(COc2ccccc2)n1N=CC=Cc1ccccc1            %      10.39
2  COc1ccc(NC(=O)CNn2c(COc3ccccc3)nc3ccccc3c2=O)cc1            %       9.76
3  O=c1c2ccccc2nc(COc2ccccc2)n1NS(=O)(=O)c1ccc(Cl)cc1            %      17.26
4  O=C(CNn1c(COc2ccccc2)nc2ccccc2c1=O)Nc1ccc(Cl)cc1            %       15.9

// data source = paper PMC8843100
